Each entry below carries its recorded IC50.
Target Entity: HCV NS5B polymerase 1a-H77-C316Y (Hepatitis C virus genotype 1a, UniProt P27958, C2736Y)
Construct: six-histidine tag
Sequence (P27958 2421-2990 C2736Y): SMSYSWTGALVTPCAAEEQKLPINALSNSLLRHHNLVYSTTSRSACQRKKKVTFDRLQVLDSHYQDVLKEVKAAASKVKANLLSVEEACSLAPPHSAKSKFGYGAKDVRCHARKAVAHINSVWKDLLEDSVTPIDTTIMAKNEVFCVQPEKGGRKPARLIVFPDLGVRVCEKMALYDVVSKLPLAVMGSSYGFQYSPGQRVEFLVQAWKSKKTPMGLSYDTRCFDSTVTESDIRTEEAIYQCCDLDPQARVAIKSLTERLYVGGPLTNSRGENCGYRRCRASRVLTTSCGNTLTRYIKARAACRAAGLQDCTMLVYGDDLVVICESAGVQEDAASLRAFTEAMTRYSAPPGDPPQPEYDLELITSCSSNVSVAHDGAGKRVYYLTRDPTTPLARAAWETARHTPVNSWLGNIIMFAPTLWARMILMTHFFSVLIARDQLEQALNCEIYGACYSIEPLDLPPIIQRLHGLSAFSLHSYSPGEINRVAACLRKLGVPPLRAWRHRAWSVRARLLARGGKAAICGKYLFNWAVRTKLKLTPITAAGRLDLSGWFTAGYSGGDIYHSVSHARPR
Assay Explanation: biochemical
Assay Endpoint: IC50 (nM)

| Compound | Assay Endpoint | Value Units | Reported Result |
| --- | --- | --- | --- |
| CS(=O)(=O)N(CCCCO)c1cc2oc(-c3ccc(F)cc3)c(-c3noc(=O)[nH]3)c2cc1C1CC1 | IC50 | nM | 20000 |
| CN(C)C(=O)CCCN(c1cc2oc(-c3ccc(F)cc3)c(-c3ncc[nH]3)c2cc1C1CC1)S(C)(=O)=O | IC50 | nM | 168 |
| CS(=O)(=O)N(CCc1ccccc1)c1cc2oc(-c3ccc(F)cc3)c(-c3ncc[nH]3)c2cc1C1CC1 | IC50 | nM | 113 |
| CS(=O)(=O)N(CCCc1noc(=O)[nH]1)c1cc2oc(-c3ccc(F)cc3)c(-c3ncc[nH]3)c2cc1C1CC1 | IC50 | nM | 43 |
| CCN(CC)CCN(c1cc2oc(-c3ccc(F)cc3)c(C3=NOCCN3)c2cc1C1CC1)S(C)(=O)=O | IC50 | nM | 632 |
| CC(c1ccccc1)N(c1ccc2c(-c3ncc[nH]3)c(-c3ccccc3)oc2c1)S(C)(=O)=O (stereo not shown) | IC50 | nM | 173 |
| CS(=O)(=O)N(CCCC(=O)O)c1cc2oc(-c3ccc(F)cc3)c(C3=NOCN3)c2cc1C1CC1 | IC50 | nM | 54 |
